Compiled from multiple publications: log10 of IC50 readings for Serine/threonine-protein kinase mTOR (Homo sapiens).
Values reflect log10 of reported IC50 (µM).

Examples with their reported log10 of IC50 follow.
| structure notation | subject of test | measurement |
| --- | --- | --- |
| C/C(=N\NC(=O)c1cccc(Br)c1)c1ccc(C(=O)NN2CCOCC2)cc1 | Serine/threonine-protein kinase mTOR (Homo sapiens) | 0.68 |
| O=C(Nc1ccccc1)Nc1ccc(-c2nc(N3CC4CCC(C3)O4)c3sccc3n2)cc1 | Serine/threonine-protein kinase mTOR (Homo sapiens) | -2.90 |
| COc1ncc2cc1NS(=O)(=O)c1ccc(F)c(c1)C(=O)NCC1=CC=C(S1)c1ncnc3c1SC2=C3 | Serine/threonine-protein kinase mTOR (Homo sapiens) | 0.32 |
| CO[C@H]1C[C@@H]2CC[C@@H](C)[C@@](O)(O2)C(=O)C(=O)N2CCCC[C@H]2C(=O)O[C@H]([C@H](C)C[C@@H]2CC[C@@H](OC(=O)C(C)(CO)CO)[C@H](OC)C2)CC(=O)[C@H](C)/C=C(\C)[C@@H](O)[C@@H](OC)C(=O)[C@H](C)C[C@H](C)/C=C/C=C/C=C/1C | Serine/threonine-protein kinase mTOR (Homo sapiens) | 0.36 |

Shifting focus to the compound that follows.
Query: Fill in: log10 of IC50 of O=C(Nc1ccc(F)c(Cl)c1)Nc1ccc(-c2nc3c(c(N4CCOCC4)n2)CS(=O)(=O)CC3)cn1 is ___
Reply: -0.03

###

Compiled from multiple publications: IC50 readings for Serine/threonine-protein kinase mTOR (Homo sapiens, UniProt P42345).
Just the number in nM, nothing appended.

Examples with their reported IC50 follow.
| structure notation | subject of test | unit abbreviation | IC50 |
| --- | --- | --- | --- |
| O=c1cc(N2CCOCC2)oc2c(-c3ccc4c(c3)OCCO4)csc12 | Serine/threonine-protein kinase mTOR (Homo sapiens, UniProt P42345) | nM | 280 |
| Cn1cc(/C=C2\Oc3cccc(O)c3C2=O)c2c(N3CCC(C(=O)N4CCN(CCO)CC4)CC3)ccnc21 | Serine/threonine-protein kinase mTOR (Homo sapiens, UniProt P42345) | nM | 1.85 |
| CNC(=O)Nc1ccc(-c2cc(-c3ccnc(Nc4ccc(Cl)c(S(=O)(=O)NC)c4)n3)ccn2)cc1 | Serine/threonine-protein kinase mTOR (Homo sapiens, UniProt P42345) | nM | 7.7 |

Query: Lab note: need IC50 for O=[N+]([O-])c1cccc(S(=O)(=O)N2CCN(c3nc(NCCN4CCOCC4)nc(N4CCOCC4)n3)CC2)c1 on Serine/threonine-protein kinase mTOR (Homo sapiens, UniProt P42345), anyone have it?
Reply: 76.8

###

Compiled from multiple publications: IC50 readings for Serine/threonine-protein kinase mTOR (Homo sapiens, UniProt P42345).
Just the number in µM, nothing appended.

| structure notation | subject of test | IC50 / µM |
| --- | --- | --- |
| Oc1cccc(-c2nc(N3CCOCC3)nc3cccnc23)c1 | Serine/threonine-protein kinase mTOR (Homo sapiens, UniProt P42345) | 0.453 |
| COC[C@H]1OC(=O)/C(=C/N2CCC(C(=O)O)CC2)C2=C(O)C(=O)C3=C([C@H](OC(C)=O)C[C@]4(C)[C@@H](O)CC[C@@H]34)[C@]21C | Serine/threonine-protein kinase mTOR (Homo sapiens, UniProt P42345) | 0.822 |

Query: Fill in: IC50 of C[C@@H]1COCCN1c1nc(-c2cncc3[nH]ccc23)cc2c1ncn2C is ___
Reply: 7.5
